Data origin, for the record: PubChem BioAssay (NCI)

# Tested on: SF-295 CNS
# test_details: NCI-60 one-dose screen, 48 h (100 = growth as untreated, 0 = no growth, -100 = all killed)
# run_conditions: 10 µM unless noted
About 83,000 compounds went through this panel and 20% of them were active in at least one assay; those are over-represented in the sample as a whole. The source made the active and inactive calls. Rule for the calls: active = growth percent below 10; inactive = the rest.
readout_type: growth

Record excerpt, results attached:
- molecule: "CCCCC(=O)Nc1nc2ccc(SCCC)cc2s1"
  growth: "45.1% (inactive)"
- molecule: "CC1=C2C(=C[C@@](C)(CO)[C@@H]2OC(=O)N(C)CCN(C)C(=O)OC(C)(C)C)C(=O)[C@](C)(O)C12CC2"
  growth: "5.06% (active)"
- molecule: "COc1ccc(Cl)cc1NC(=O)c1cc2c(n1C)-c1nc(NC(=O)C(C)(C)C)sc1CC2"
  growth: "87.8% (inactive)"
- molecule: "C=C1C(=O)O[C@H]2[C@H]1CC/C(COC(=O)OC/C1=C/CC[C@@]3(C)O[C@H]3[C@H]3OC(=O)[C@@H](CN(C)C)[C@@H]3CC1)=C\\CC[C@@]1(C)O[C@@H]21"
  growth: "94.7% (inactive)"
- molecule: "CC(C)[C@@H]1NC(=O)[C@]2(C)CSC(=N2)c2ccnc(c2)CNC(=O)C[C@@H](/C=C/CCS)OC1=O"
  growth: "-1.44% (active)"
- molecule: "COc1cc2ncn3c(=O)c4c5c(sc4nc3c2cc1OC)CCCCC5"
  growth: "105% (inactive)"
- molecule: "O=[N+]([O-])c1ccc(NS(=O)(=O)c2ccccc2)c2ccccc12"
  growth: "43% (inactive)"
- molecule: "Cc1[nH]c2ccc(F)cc2c1CCNC(=O)C1CCN(C(=O)c2ccc(-c3ccccc3)cc2)CC1"
  growth: "37.6% (inactive)"
- molecule: "CC(C)Cn1cnc2c3ccccc3nc(NCn3nc(-c4cc(Cl)cc(Cl)c4Cl)oc3=S)c21"
  growth: "100% (inactive)"
- molecule: "CCC1S/C(=N\\N=C(/C)c2ccco2)N(c2ccccc2)C1=O (stereo not drawn)"
  growth: "123% (inactive)"

Okay, next one:
Recall and state the measured growth for Cc1cc(NCCN(C(C)C)C(C)C)nc(/N=C(\N)Nc2ccc(Cl)c(C(F)(F)F)c2)n1 .
-77.8% (active)

* * *

# Test system: MCF7 breast
# test_details: NCI-60 one-dose screen, 48 h (100 = growth as untreated, 0 = no growth, -100 = all killed)
# run_conditions: 10 µM unless noted
This is part of a sample that, as a whole, favours compounds with a hit. Of some 83,000 tested, about 20% had one in any assay.
readout_type: growth (%)
# value in %; strip the unit string

Record excerpt, results attached:
- compound: "CC(C)(C)C(=O)Nc1nc2c(s1)CCc1ccn(S(=O)(=O)c3ccccc3)c1-2"
  unit_text: "%"
  experimental_value: 85.9
- compound: "O=C(NCCNc1nccc(-c2c(-c3cccc(O)c3)nc3sccn23)n1)Nc1cc(C(F)(F)F)cc(C(F)(F)F)c1"
  unit_text: "%"
  experimental_value: 67.5
- compound: "Cc1ccc2c(c1)Nc1ccc(C)cc1C2(C)C"
  unit_text: "%"
  experimental_value: 86.9
- compound: "CC(C)CNCC(O)COc1ccc(C(C)(C)c2ccc(OCC(O)CNCC(C)C)cc2)cc1 (stereo not given)"
  unit_text: "%"
  experimental_value: 10.3

Okay, next one:
Recall and state the measured growth for COc1cc(/C=C/C(=O)c2c(C)[n+]([O-])c3ccccc3[n+]2[O-])ccc1O .
93

* * *

# System: RXF 393 renal
# test_details: NCI-60 one-dose screen, 48 h (100 = growth as untreated, 0 = no growth, -100 = all killed)
# run_conditions: 10 µM unless noted
# Method: Cells are grown in 96 well plates and exposed to the test compound for 48 hours. Compounds are tested at a single concentration, which is 10^-5 M for most compounds. The reported endpoint is percent growth (GI% or GIPRCNT), where numbers from 0 - 100% represent growth inhibition, and numbers from -100% - 0 represent cell death. For example, a value of 40 represents 60% growth inhibition. A value of 0 means no net growth occurred over the course of the experiment. […]
This is part of a sample that, as a whole, favours compounds with a hit. Of some 83,000 tested, about 20% had one in any assay.
readout_type: growth (%)
# value in %; strip the unit string

- compound: "COc1ccc2c(c1)C(=O)/C(=C/c1ccc(OCC(=O)c3ccc(Cl)cc3)cc1)O2"
  growth [%]: 74.5
- compound: "O=[N+]([O-])c1ccccc1NC1c2ccccc2Oc2ccccc21"
  growth [%]: 81.1
- compound: "C=C1C(=O)O[C@H]2[C@H]1CC/C(C(=O)NCCOCCOCC(=O)Nc1ccc(OC)c(C(N)=O)c1O)=C\\CC[C@@]1(C)O[C@@H]21"
  growth [%]: 59.6
- compound: "COc1cc2c(cc1OCCCCC(=O)Nc1ccc(-c3nc4ccccc4s3)cc1)N=C[C@@H]1CCCN1C2=O"
  growth [%]: -83
- compound: "Cc1cc(N2CCOCC2)nc(N(CCNc2ccnc3cc(Cl)ccc23)Cc2ccco2)n1"
  growth [%]: 10.6
- compound: "CCOc1ccc(NC(=O)Nc2cc(C(C)C)ccc2C)cc1"
  growth [%]: -31.8
- compound: "Cc1cc2c(cc1C)N(C(=O)CCl)CCN2C(=O)CCl"
  growth [%]: -47.1
- compound: "CCC(CC(C)C)Nc1ccc(NC(CC)CC(C)C)cc1 (stereo not given)"
  growth [%]: 96.5
- compound: "Nc1ncc(-c2ccc3ncnc(Nc4ccc(F)c(Cl)c4)c3c2)cn1"
  growth [%]: 32.9

Okay, next one:
Print RXF 393 renal growth for COc1ccc(CCNC=O)cc1OC .
87.9

* * *

Entries and their measured growth follow.
# Tested on: MOLT-4 leukemia
# test_details: NCI-60 one-dose screen, 48 h (100 = growth as untreated, 0 = no growth, -100 = all killed)
# run_conditions: 10 µM unless noted
This is part of a sample that, as a whole, favours compounds with a hit. Of some 83,000 tested, about 20% had one in any assay.
# value in %; strip the unit string

Record excerpt, results attached:
- compound: "N#CC1=C(N)Oc2c(ccc3ccccc23)C1c1cc(=O)oc2ccc(Cl)cc12 (stereo not given)"
  unit_text: "%"
  growth: 20.8
- compound: "O=C(C[n+]1ccccc1Cl)c1ccc2c(c1)CCCC2"
  unit_text: "%"
  growth: 73.6
- compound: "OC(COc1ccccc1Cl)CN1CCN(c2ccc(Cl)cc2)CC1 (stereo not given)"
  unit_text: "%"
  growth: 95.3
- compound: "CC(C)(C)OC(=O)N1CC(Cn2cc(C(F)(F)F)c3c(Cl)ncnc32)C1"
  unit_text: "%"
  growth: -37.5

Okay, next one:
Recall and state the measured growth for Cc1ccc2c(C3C(C#N)=C(N)Oc4cc5ccccc5cc43)cc(=O)oc2c1 (stereo not given) .
20.8

* * *

# Test system: SK-MEL-28 melanoma
# test_details: NCI-60 one-dose screen, 48 h
# run_conditions: 10 µM unless noted
About 83,000 compounds went through this panel and 20% of them were active in at least one assay; those are over-represented in the sample as a whole. The source made the active and inactive calls. How the source made its calls: active means growth percent below 10; inactive means the rest.
Select the correct class. Options are label 1 (active), label 0 (inactive) and nothing else.

Illustrative cases are given below, each with its answer.
- molecule: "COc1ccc2c(c1)C(=O)/C(=C/c1ccc(OCC(=O)c3ccc(Cl)cc3)cc1)O2"
  target_under_test: "SK-MEL-28 melanoma"
  classification: "label 0"
- molecule: "NC(CCCC(N)C(=O)c1ccccc1)C(=O)O (stereo not drawn)"
  target_under_test: "SK-MEL-28 melanoma"
  classification: "label 0"
- molecule: "COc1ccc(C(=O)Cn2cnc3c(Nc4cc(C(=O)Nc5ccc(N6CCN(CCO)CC6)cc5)ccc4C)ncnc32)cc1"
  target_under_test: "SK-MEL-28 melanoma"
  classification: "label 0"
- molecule: "O=C1c2ccccc2OC=C(c2ccccc2)N1CCCCNc1ccc(F)cc1"
  target_under_test: "SK-MEL-28 melanoma"
  classification: "label 0"
- molecule: "COc1ccc(/C(Cl)=N/N=C(\\Cl)c2cc(OC)c(OC)c(OC)c2)cc1OC(C)=O"
  target_under_test: "SK-MEL-28 melanoma"
  classification: "label 0"
- molecule: "COc1cc(NS(=O)(=O)c2ccc(N)cc2)ncn1"
  target_under_test: "SK-MEL-28 melanoma"
  classification: "label 0"

Would you mind telling me which call this test gave c1cncc(-c2nc3ccccc3[nH]2)c1 ?
label 0

Would you mind telling me which call this test gave CN(C)c1ccc(/C=N/N=C(N)N)cc1 ?
label 0

Would you mind telling me which call this test gave CCN(CC)CCN1C(=O)c2c(c3c4ccccc4[nH]c3c3[nH]c4ccccc4c23)C1=O ?
label 0

Would you mind telling me which call this test gave CC(C)(C)OC(=O)N1CCN(CCn2cc(C(F)(F)F)c3c(Cl)ncnc32)CC1 ?
label 0

Would you mind telling me which call this test gave O=C(Nc1ccc(-n2ccc3c(NC(=O)c4ccccc4)ncnc32)cc1)Nc1ccc(Cl)c(Cl)c1 ?
label 1

Would you mind telling me which call this test gave CC(=O)Oc1ccc(C(OC(C)=O)OC(C)=O)cc1 ?
label 0

Would you mind telling me which call this test gave COc1ccc(C(=O)NC(=O)Nc2ccc3c(c2)NC(=O)/C3=C\c2[nH]c(C)c(C(=O)O)c2C)cc1 ?
label 0

Would you mind telling me which call this test gave O=[N+]([O-])c1cccc2cc(S(=O)(=O)O)ccc12 ?
label 0

Would you mind telling me which call this test gave CCC1S/C(=N\N=C(/C)c2ccco2)N(c2ccccc2)C1=O (stereo not drawn) ?
label 0

Would you mind telling me which call this test gave C=CC(=O)NC(=O)Nc1ccccc1Cl ?
label 0

Would you mind telling me which call this test gave C=CCn1c(SCC(=O)Nc2ccc(C(=O)/C=C/c3cc(OC)c(OC)c(OC)c3)cc2)nnc1-c1ccc(OC)cc1 ?
label 0

Would you mind telling me which call this test gave O=C(O)c1cc2ccccc2cc1Nc1ccccc1 ?
label 0

Would you mind telling me which call this test gave COc1ccc2c(c1)C(=O)/C(=C/c1cccc(OCC(=O)c3ccccc3)c1)O2 ?
label 1

Would you mind telling me which call this test gave COc1ccc2c(c1)OC(N)=C(C#N)C2c1ccc(F)cc1 (stereo not drawn) ?
label 0

Would you mind telling me which call this test gave Cc1[nH]c2ccc(F)cc2c1CCNC(=O)C1CCN(C(=O)c2ccc(-c3ccccc3)cc2)CC1 ?
label 0

Would you mind telling me which call this test gave NCC(=O)NS(=O)(=O)OC[C@H]1O[C@@H](n2cnc3c(N)ncnc32)[C@H](O)[C@@H]1O ?
label 1
